Every entry's value here was drawn from patent US20140314857A1.

# test: Intravenous and intraduodenal (bolus) bioavailability of zanamivir from Capmul MCM L8 25, 50, 75 µL (Example 7)
# condition description: male, Sprague-Dawley, rat, in vivo, 1.5 mg, t1/2, ID bolus 1.5 mg/animal, 50 µL Capmul MCM L8, Ex.7; mean
measurement type: half-life (min)

[
  {
    "molecule": "CC(=O)NC1C(NC(=N)N)C=C(C(=O)O)OC1C(O)C(O)CO (stereo not shown)",
    "reported measurement": 24.6
  }
]

###

# test: Intravenous and intraduodenal (bolus) bioavailability of zanamivir from Capmul MCM L8 25, 50, 75 µL (Example 7)
# condition description: male, Sprague-Dawley, rat, in vivo, 1.5 mg/animal, Plasma concentration, ID bolus 1.5 mg/animal, 50 µL Capmul MCM L8, Ex.7; 1.0 hr; mean

[
  {
    "compound": "CC(=O)NC1C(NC(=N)N)C=C(C(=O)O)OC1C(O)C(O)CO (stereo not shown) [Zanamivir]",
    "concentration at 1 hr, ng/mL": 651
  }
]

###

# test: Intravenous and intraduodenal (bolus) bioavailability of zanamivir from Capmul MCM L8 25, 50, 75 µL (Example 7)
# condition description: male, Sprague-Dawley, rat, in vivo, 1.5 mg, average half-life, ID bolus 1.5 mg/animal, 75 µL Capmul MCM L8
measurement type: half-life (min)

[
  {
    "molecule": "CC(=O)NC1C(NC(=N)N)C=C(C(=O)O)OC1C(O)C(O)CO (stereo not shown)",
    "measurement type": "half-life",
    "units of measure": "min",
    "reported measurement": 24.9
  }
]

###

# test: Intravenous and intraduodenal bioavailability of zanamivir from three formulations (Example 5)
# condition description: male, Sprague-Dawley, rat, in vivo, iv, 1.5 mg, t1/2, IV 1.5 mg/animal, Normal Saline, Ex.5; mean
measurement type: half-life (min)

[
  {
    "compound": "CC(=O)NC1C(NC(=N)N)C=C(C(=O)O)OC1C(O)C(O)CO (stereo not shown)",
    "reported measurement": 29.4
  }
]

###

# test: Intravenous and intraduodenal bioavailability of zanamivir from three formulations (Example 5)
# condition description: male, Sprague-Dawley, rat, in vivo, 1.5 mg, T1/2, ID 1.5 mg/animal, Capmul MCM L8 50 µL, Ex.5; mean
measurement type: half-life (min)

[
  {
    "molecule": "CC(=O)NC1C(NC(=N)N)C=C(C(=O)O)OC1C(O)C(O)CO (stereo not shown) [Zanamivir]",
    "reported measurement": 29.4
  }
]

###

# test: Intraduodenal bioavailability of zanamivir from glycerol and PBS formulations, enhancer pre-dose (Example 6)
# condition description: male, Sprague-Dawley, rat, in vivo, 1.5 mg/animal, Plasma concentration, ID 1.5 mg/animal, 50 µL PBS, 150 µL blank glycerol -2 hr; 0.25 hr; mean

[
  {
    "compound": "CC(=O)NC1C(NC(=N)N)C=C(C(=O)O)OC1C(O)C(O)CO (stereo not shown)",
    "concentration at 0.25 hr / ng/mL": 51.8
  }
]

###

# test: Intraduodenal bioavailability of zanamivir from glycerol and PBS formulations, enhancer pre-dose (Example 6)
# condition description: male, Sprague-Dawley, rat, in vivo, 1.5 mg/animal, Plasma concentration, ID 1.5 mg/animal, 50 µL PBS, 50 µL blank Capmul MCM L8 -2 hr; 1.5 hr; mean

[
  {
    "compound": "CC(=O)NC1C(NC(=N)N)C=C(C(=O)O)OC1C(O)C(O)CO (stereo not shown)",
    "concentration at 1.5 hr [µg/mL]": 0.0387
  }
]
